We begin with a simple list: items and their reported IC50.
Molecular target: Interleukin-8 receptors, CXCR1/CXCR2 (Homo sapiens, UniProt P25025+P25024)
Sequence (P25025 whole entry): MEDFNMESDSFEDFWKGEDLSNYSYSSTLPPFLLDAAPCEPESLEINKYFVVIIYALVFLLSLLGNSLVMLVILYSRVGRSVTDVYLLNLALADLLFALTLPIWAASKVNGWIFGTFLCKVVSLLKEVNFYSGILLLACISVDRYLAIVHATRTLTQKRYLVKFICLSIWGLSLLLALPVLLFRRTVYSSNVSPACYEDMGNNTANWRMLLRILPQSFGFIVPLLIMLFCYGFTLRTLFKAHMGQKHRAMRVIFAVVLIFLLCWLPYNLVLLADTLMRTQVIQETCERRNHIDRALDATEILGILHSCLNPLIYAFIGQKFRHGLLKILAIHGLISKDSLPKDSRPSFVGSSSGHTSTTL
Sequence (P25024 whole entry): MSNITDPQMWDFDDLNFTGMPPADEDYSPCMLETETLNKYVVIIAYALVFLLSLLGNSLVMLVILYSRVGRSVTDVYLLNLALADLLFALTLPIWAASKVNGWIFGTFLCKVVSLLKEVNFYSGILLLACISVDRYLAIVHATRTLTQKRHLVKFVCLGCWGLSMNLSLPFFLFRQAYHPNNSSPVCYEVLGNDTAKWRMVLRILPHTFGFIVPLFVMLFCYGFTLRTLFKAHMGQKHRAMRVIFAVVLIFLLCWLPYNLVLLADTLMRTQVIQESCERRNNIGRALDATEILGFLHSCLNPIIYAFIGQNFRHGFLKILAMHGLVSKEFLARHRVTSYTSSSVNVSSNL
Experiment: Antagonist activity at CXCR1/CXCR2 in human PMN cells assessed as inhibition of GROalpha-mediated intracellular calcium release
Assay type: functional, cell-based
readout_label: IC50 (nM)

1) O=C(Nc1ccc(F)cc1)c1ccc(SCc2ccc(B(O)O)cc2)nc1	90
2) O=C(Nc1ccc(F)cc1)c1ccc(SCc2cc(F)ccc2B(O)O)nc1	52
3) COc1ccc(B(O)O)c(CSc2ccc(C(=O)Nc3ccc(F)cc3)cn2)c1	80
4) O=C(Nc1ccc(F)cc1)c1ccc(SCc2ccccc2B(O)O)nc1	38
5) O=C(Nc1ccc(F)cc1)c1ccc(SCCc2ccccc2B(O)O)nc1	387
6) O=C(Nc1ccc(F)cc1)c1ccc(SCc2cccc(B(O)O)c2)nc1	1220
7) O=C(Nc1ccc(F)cc1)c1ccc(SCCCCB(O)O)nc1	689

====

Target: C-X-C chemokine receptor type 2 (Homo sapiens)
Assay: Inhibition of CXCR2 (unknown origin) transfected with RBL cells
Format: cell-based
pIC50: −log10 of the molar value.
readout_label: pIC50

1) O=C(Nc1ccc(F)cc1)c1ccc(SCc2ccccc2B(O)O)nc1	6.45
